Value source: ChEMBL document CHEMBL3817834

assay: Inhibition of ATP synthase in Mycobacterium smegmatis inverted membrane vesicles assessed as reduction in oxidative phosphorylation of ADP incubated for 60 mins in presence of NADH by luciferin/luciferase coupled […] assay; parameters: species or system Mycolicibacterium smegmatis
pIC50 overview
# pIC50: negative log10 of molar concentration; output just the value

Examples with answers:
{"compound": "CC(Nc1nc(N2CCCC2)nc2ccccc12)c1ccccc1 (stereo unspecified)", "pIC50": 5.60}
{"compound": "CN(C)CCOc1ncc(Nc2cc(N3CCC(c4ccccc4Cl)C3)nc3cc(F)c(F)cc23)cc1F (stereo unspecified)", "pIC50": 7.00}
{"compound": "COc1cc2nc(NCCC3CCOCC3)cc(Nc3cnc(OCCN(C)C)c(F)c3)c2cc1OC", "pIC50": 5.43}
{"compound": "CN(C)CCOc1ncc(Nc2cc(-c3ccccc3)nc3cc(-c4ccc(F)cc4)nn23)cc1F", "pIC50": 6.35}

Briefly, pIC50 measured for COc1cc2nc(NCCc3cccnc3)nc(Nc3cnc(OC)c(C)c3)c2cc1OC : 7.00

Briefly, pIC50 measured for COc1cc2nc(NCCC3CCOCC3)nc(Nc3cnc(OCCN(C)C)c(F)c3)c2cc1OC : 6.05
